measured target: Phosphatidylinositol 3-kinase catalytic subunit type 3 (Homo sapiens)
Sequence (Q8NEB9 whole entry): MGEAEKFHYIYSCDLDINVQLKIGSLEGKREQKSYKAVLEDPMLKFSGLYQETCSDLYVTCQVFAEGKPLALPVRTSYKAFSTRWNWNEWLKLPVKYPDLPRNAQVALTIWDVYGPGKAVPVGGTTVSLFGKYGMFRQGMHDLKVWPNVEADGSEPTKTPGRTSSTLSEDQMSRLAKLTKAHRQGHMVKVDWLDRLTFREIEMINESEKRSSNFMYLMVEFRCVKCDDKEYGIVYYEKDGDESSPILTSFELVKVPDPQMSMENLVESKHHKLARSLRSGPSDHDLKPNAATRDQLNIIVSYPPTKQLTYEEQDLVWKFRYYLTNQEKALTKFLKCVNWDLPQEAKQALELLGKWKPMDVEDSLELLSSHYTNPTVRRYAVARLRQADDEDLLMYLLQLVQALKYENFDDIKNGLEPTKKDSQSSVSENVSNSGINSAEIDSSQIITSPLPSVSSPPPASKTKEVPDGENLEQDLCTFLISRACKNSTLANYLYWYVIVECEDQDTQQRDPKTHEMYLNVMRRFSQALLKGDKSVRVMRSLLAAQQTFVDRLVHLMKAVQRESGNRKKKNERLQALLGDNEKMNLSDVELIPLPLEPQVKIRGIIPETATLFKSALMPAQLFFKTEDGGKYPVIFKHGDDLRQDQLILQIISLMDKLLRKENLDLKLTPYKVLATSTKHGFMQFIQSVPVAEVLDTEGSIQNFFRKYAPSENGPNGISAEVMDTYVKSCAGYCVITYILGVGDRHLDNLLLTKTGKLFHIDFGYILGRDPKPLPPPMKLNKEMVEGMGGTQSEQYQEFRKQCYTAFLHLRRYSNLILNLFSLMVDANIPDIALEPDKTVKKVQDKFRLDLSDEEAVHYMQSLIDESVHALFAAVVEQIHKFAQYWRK
experiment summary: VPS34 ADP-Glo kinase assay
Method: Experimental compound in DMSO was dispensed to a 384-well microplate via acoustic dispenser at 50 nl per well. […] Assay buffer conditions were as follows: 50 mM HEPES, pH 7.5, 3 mM MnCl2, 0.01% BSA, 0.01% Brij 35, 1 mM TCEP. The 5 µl reaction was incubated for 90 minutes at room temperature, and then quenched with equal volume of ADP-Glo Reagent (5 µl; Promega). […] Luminescence signal was detected on an Envision (Perkin Elmer).
Exam item: assign True to entries whose IC50 is below 10 µM and False to entries at or above 10 µM. Note that a value of exactly 10 µM receives False.

C[C@@H]1COCCN1c1cc2n(n1)C([C@@H](C)CO)CNC2=O (stereo partly specified) : True

Prompt: Find out if reported IC50 for CC(C)C1(CO)CNC(=O)c2cc(N3CCOC[C@H]3C)nn21 (stereo partly specified) is less than 10 µM
Response: True

Prompt: Find out if reported IC50 for CC[C@H]1CNC(=O)c2cc(N3CCOC[C@H]3C)nn21 is less than 10 µM
Response: True

Prompt: Find out if reported IC50 for CC(C)C[C@@H]1CNC(=O)c2cc(N3CCOC[C@H]3C)nn21 is less than 10 µM
Response: False

Prompt: Find out if reported IC50 for C[C@@H]1COCCN1c1cc2n(n1)C(C)(C)CNC2=O is less than 10 µM
Response: True

Prompt: Find out if reported IC50 for C[C@H](c1ccccc1)C1CNC(=O)c2cc(N3CCOC[C@H]3C)nn21 (stereo partly specified) is less than 10 µM
Response: False
